Data provenance: patent US10364245B2

molecular target: p38 alpha (Homo sapiens); experiment: P38 alpha enzyme inhibition assay (Alphascreen kinase activity assay); details: 100 pM p38 alpha, 2 hours preincubation at 25° C., 250 μM ATP, ATF-2 fusion protein; read-out: p38α inhibition
pIC50: −log10 of the molar value. Counter-ions that a name gives are not always drawn.
propertyName: pIC50

Fill blank: measured pIC50 of the compound CC(C)(C)c1cc(NC(=O)N[C@H]2CC[C@@H](Oc3ccc4nnc(C(C)(C)C)n4c3)c3ccccc32)cc(C(=O)NCCN2CCC(O)CC2)n1 is ____.
> 9.00

Would you kindly share the measured pIC50 for CN(C)CCNC(=O)c1cc(NC(=O)N[C@H]2CC[C@@H](Oc3ccc4nnc([C@]5(C)CCCN5C)n4c3)c3ccccc32)cc(C(C)(C)C)n1 ?
> 9.00

// lookup pIC50 for CC(C)(C)c1cc(NC(=O)N[C@H]2CC[C@@H](Oc3ccc4nnc(C(C)(C)C)n4c3)c3ccccc32)nc(C(=O)NCCCN2CCOCC2)n1
8.00 to 9.00

Which value of pIC50 has been reported for CC(C)(C)c1cc(NC(=O)N[C@H]2CC[C@@H](Oc3ccc4nnc(C(C)(C)C)n4c3)c3ccccc32)nc(CNC(=O)CCN2CCOCC2)n1 in the records?
8.00 to 9.00

Returns the measured pIC50 for the input compound. Input: CCN(C)C(C)(C)CNC(=O)c1nc(NC(=O)N[C@H]2CC[C@@H](Oc3ccc4nnc(C(C)(C)C)n4c3)c3ccccc32)cc(C(C)(C)C)n1
8.00 to 9.00

pIC50 lookup needed for CN(CCNC(=O)c1nc(NC(=O)N[C@H]2CC[C@@H](Oc3ccc4nnc(C(C)(C)C)n4c3)c3ccccc32)cc(C(C)(C)C)n1)C1COC1 , thanks.
> 9.00

Using the record for CO[C@@H](C)c1nnc2ccc(O[C@@H]3CC[C@H](NC(=O)Nc4cc(C(C)(C)C)nc(C(=O)NCCN5CCOCC5)n4)c4ccccc43)cn12 , report its pIC50.
8.00 to 9.00

Need pIC50, item COc1ncc(C(C)(C)C)cc1NC(=O)N[C@H]1CC[C@@H](Oc2ccc3nnc([C@@H]4CCCN4C)n3c2)c2ccccc21 [Example 35, hydrochloride Salt]
> 9.00

What does the data say about its pIC50? Entry: CCC(CC)c1nnc2ccc(O[C@@H]3CC[C@H](NC(=O)Nc4cc(C(C)(C)C)nc(C(=O)NCC(C)(C)N(C)CC)n4)c4ccccc43)cn12
> 9.00

What does the record list as pIC50 for COCc1nc(NC(=O)N[C@H]2CC[C@@H](Oc3ccc4nnc([C@]5(C)CCCN5C)n4c3)c3ccccc32)cc(C(C)(C)C)n1 ?
8.00 to 9.00

Tell me the measured pIC50 of CC(C)(C)c1cc(NC(=O)N[C@H]2CC[C@@H](Oc3ccc4nnc(C5(C)CCCC5)n4c3)c3ccccc32)nc(C(=O)NCCCN2CCOCC2)n1 [Example 184, formate salt] , please.
> 9.00

Given the entry COC1CN(C(C)(C)CNC(=O)c2nc(NC(=O)N[C@H]3CC[C@@H](Oc4ccc5nnc(C(C)(C)OC)n5c4)c4ccccc43)cc(C(C)(C)C)n2)C1 , report its measured pIC50.
8.00 to 9.00

Suppose we examine the compound C[C@@H]1CCC[C@H](C)N1c1nnc2ccc(O[C@@H]3CC[C@H](NC(=O)Nc4cc(C(C)(C)C)nc(C(=O)NCCN(C)C)n4)c4ccccc43)cn12 ; what pIC50 value has been reported?
> 9.00

What value of measured pIC50 is listed for CC(C)(C)c1cc(NC(=O)N[C@H]2CC[C@@H](Oc3ccc4nnc(C(C)(C)C)n4c3)c3ccccc32)nc(C(=O)N2CC(F)(F)C2)n1 ?
8.00 to 9.00

Endpoint output: pIC50 of CCN(C)CCNC(=O)c1cc(NC(=O)N[C@H]2CC[C@@H](Oc3ccc4nnc(N(CC)CC)n4c3)c3ccccc32)cc(C(C)(C)C)n1 [Example 205, formate salt] . Value?
> 9.00

Please report the recorded pIC50 for CCC(CC)(CNC(=O)c1nc(NC(=O)N[C@H]2CC[C@@H](Oc3ccc4nnc(C(C)(C)COC)n4c3)c3ccccc32)cc(C(C)(C)C)n1)N(C)C .
8.00 to 9.00

Bench note: what pIC50 did CC(C)(C)Cc1nnc2ccc(O[C@@H]3CC[C@H](NC(=O)Nc4cc(C(C)(C)C)nc(C(=O)NCCN5CCOCC5)n4)c4ccccc43)cn12 show?
8.00 to 9.00

Data request, read-out pIC50, for CN(C)C1(CNC(=O)c2nc(NC(=O)N[C@H]3CC[C@@H](Oc4ccc5nnc(C(C)(C)C)n5c4)c4ccccc43)cc(C(C)(C)C)n2)CCC1
8.00 to 9.00

Record request: pIC50 value, item CSc1nc(NC(=O)N[C@H]2CC[C@@H](Oc3ccc4nnc([C@@H]5CCCN5C)n4c3)c3ccccc32)cc(C(C)(C)C)n1
8.00 to 9.00

Name the reported pIC50 value associated with the compound CCC(CC)c1nnc2ccc(O[C@@H]3CC[C@H](NC(=O)Nc4cc(C(=O)NCCN(C)C)nc(C(C)(C)C)c4)c4ccccc43)cn12
> 9.00

What value of measured pIC50 is listed for CN(C)CCNC(=O)c1nc(NC(=O)N[C@H]2CC[C@@H](Oc3ccc4nnc(C(C)(C)N5CCN(C)CC5)n4c3)c3ccccc32)cc(C(C)(C)C)n1 ?
8.00 to 9.00

Query: pIC50; subject: CC[C@H](C)c1nnc2ccc(O[C@@H]3CC[C@H](NC(=O)Nc4cc(C(C)(C)C)nc(C(=O)NCCN(C)CCOC)n4)c4ccccc43)cn12
> 9.00

If you can, please state the reported pIC50 value of CC(C)(C)c1cc(NC(=O)N[C@H]2CC[C@@H](Oc3ccc4nnc(C(C)(C)C)n4c3)c3ccccc32)nc(C(=O)NCCN2CCC2)n1 .
> 9.00

====

Provide the reported IC50 of each item.
target: p38 alpha (Homo sapiens); test: P38 alpha enzyme inhibition assay (Alphascreen kinase activity assay); details: 100 pM p38 alpha, 2 hours preincubation at 25° C., 250 μM ATP, ATF-2 fusion protein; read-out: p38α inhibition

Using the record for CN1CC[C@@H](NC(=O)c2nc(NC(=O)N[C@H]3CC[C@@H](Oc4ccc5nnc(C(C)(C)C)n5c4)c4ccccc43)cc(C(C)(C)C)n2)C1 , report its IC50.
< 1 nM

Data request, read-out IC50, for CN(C)CCNC(=O)c1cc(NC(=O)N[C@H]2CC[C@@H](Oc3ccc4nnc(C(C)(C)C)n4c3)c3ccccc32)cc(C(C)(C)C)n1
< 1 nM

Fill in: IC50 of CC(C)(C)c1cc(NC(=O)N[C@H]2CC[C@@H](Oc3ccc4nnc(C(C)(C)C)n4c3)c3ccccc32)nc(C(=O)NCCN2CC[C@H](O)C2)n1 is ___
< 1 nM

====

What IC50 was measured for each of the following?
molecular target: p38 alpha (Homo sapiens, UniProt Q16539); assay: P38 alpha enzyme inhibition assay (Alphascreen kinase activity assay); conditions: 100 pM p38 alpha, 2 hours preincubation at 25° C., 250 μM ATP, ATF-2 fusion protein; read-out: p38α inhibition
Sequence (Q16539 whole entry, the tested form may be a part): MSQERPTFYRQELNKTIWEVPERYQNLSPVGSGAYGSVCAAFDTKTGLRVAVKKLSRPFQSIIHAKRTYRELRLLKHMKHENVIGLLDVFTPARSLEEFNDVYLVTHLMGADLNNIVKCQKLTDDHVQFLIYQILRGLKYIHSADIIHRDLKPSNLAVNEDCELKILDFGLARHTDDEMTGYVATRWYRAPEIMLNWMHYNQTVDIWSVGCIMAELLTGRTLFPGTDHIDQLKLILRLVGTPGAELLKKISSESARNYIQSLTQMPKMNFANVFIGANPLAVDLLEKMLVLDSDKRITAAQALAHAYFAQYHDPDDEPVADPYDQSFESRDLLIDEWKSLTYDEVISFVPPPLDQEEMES

Any idea what its IC50 is? The molecule is CCC(C)(C)c1nnc2ccc(O[C@@H]3CC[C@H](NC(=O)Nc4cc(C(C)(C)C)nc(C(=O)NCCCN5CCOCC5)n4)c4ccccc43)cn12
< 1 nM

Fill in the blank: the reported IC50 of COCC(C)(C)c1nnc2ccc(O[C@@H]3CC[C@H](NC(=O)Nc4cc(C(C)(C)C)nc(C(=O)NCCCN5CCOCC5)n4)c4ccccc43)cn12 is ____.
< 1 nM

Any idea what its IC50 is? The molecule is CCOC(=O)c1nc(NC(=O)N[C@H]2CC[C@@H](Oc3ccc4nnc([C@]5(C)CCCN5C)n4c3)c3ccccc32)cc(C(C)(C)C)n1
1 to 10 nM

If you can, please state the reported IC50 value of CCN(C)C(C)(C)CNC(=O)c1nc(NC(=O)N[C@H]2CC[C@@H](Oc3ccc4nnc(C(C)(C)OC)n4c3)c3ccccc32)cc(C(C)(C)C)n1 .
1 to 10 nM

For the molecule shown here, CN(CCO)CCNC(=O)c1cc(NC(=O)N[C@H]2CC[C@@H](Oc3ccc4nnc(C(C)(C)C)n4c3)c3ccccc32)cc(C(C)(C)C)n1 , give the reported IC50.
< 1 nM

Given the molecule CC(C)(C)c1cc(NC(=O)N[C@H]2CC[C@@H](Oc3ccc4nnc(C(C)(C)C)n4c3)c3ccccc32)nc(CN(CCO)CCO)n1 , what is its reported IC50?
< 1 nM

====

biological target: p38 alpha (Homo sapiens); construct: purchased Invitrogen PV3304; assay: P38 alpha enzyme inhibition assay (Alphascreen kinase activity assay); format: biochemical; details: 100 pM p38 alpha, 2 hours preincubation at 25° C., 250 μM ATP, ATF-2 fusion protein; read-out: p38α inhibition
propertyName: IC50

Form: Entry = CN1CCN(C(C)(C)c2nnc3ccc(O[C@@H]4CC[C@H](NC(=O)Nc5cc(C(C)(C)C)nc(CO)n5)c5ccccc54)cn23)CC1 [Example 23] | System = p38 alpha (Homo sapiens) | IC50 = ____
1 to 10 nM

Missing value: IC50, p38 alpha (Homo sapiens), entry CCC(CC)c1nnc2ccc(O[C@@H]3CC[C@H](NC(=O)Nc4cc(C(C)(C)C)nc(C(=O)NCCN(CCOC)CCOC)n4)c4ccccc43)cn12 [Example 85] . Fill in?
< 1 nM

Record lookup: for p38 alpha (Homo sapiens), what IC50 belongs to CN(C)CCCNC(=O)c1nc(NC(=O)N[C@H]2CC[C@@H](Oc3ccc4nnc(C(C)(C)C)n4c3)c3ccccc32)cc(C(C)(C)C)n1 [Example 118] ?
1 to 10 nM

Request: IC50, test system p38 alpha (Homo sapiens), entry COC(C)(C)c1nnc2ccc(O[C@@H]3CC[C@H](NC(=O)Nc4cc(C(C)(C)C)nc(C(=O)NCCN5CCOCC5)n4)c4ccccc43)cn12 [Example 95]
1 to 10 nM

So what IC50 did COCC(C)(C)c1nnc2ccc(O[C@@H]3CC[C@H](NC(=O)Nc4cc(C(C)(C)C)nc(C(=O)NCC(C)(C)N(C)C)n4)c4ccccc43)cn12 [Example 7] get with p38 alpha (Homo sapiens)?
< 1 nM

Reported IC50 for p38 alpha (Homo sapiens), given CC(C)c1nc(NC(=O)N[C@H]2CC[C@@H](Oc3ccc4nnc([C@]5(C)CCCN5C)n4c3)c3ccccc32)cc(C(C)(C)C)n1 [Example 42] ?
1 to 10 nM
